B1: TPR t1 (parent)
chain: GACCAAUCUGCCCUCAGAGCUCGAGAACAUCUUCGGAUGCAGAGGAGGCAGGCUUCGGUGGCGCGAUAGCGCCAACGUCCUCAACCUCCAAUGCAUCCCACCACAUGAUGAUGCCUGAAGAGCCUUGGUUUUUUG

- Variants of: B1
- Test name: polymerase ribozyme fitness, log enrichment relative to wild type (log ratio); higher = more active; in vitro selection for triplet polymerase activity
Category key, based on recorded polymerase ribozyme fitness (log ratio): group A = under -5, group B = from -5 up to -3, group C = -3 and over

>  <Mutant name>
A27G U78C

>  <Assigned category>
group C

$$$$
>  <Mutant name>
U9G U55A

>  <Assigned category>
group C

$$$$
>  <Mutant name>
G57A U87C

>  <Assigned category>
group C

$$$$
>  <Mutant name>
C73G C124A

>  <Assigned category>
group C

$$$$
>  <Mutant name>
C73A U78C C94U

>  <Assigned category>
group C

$$$$
>  <Mutant name>
A43U U129G

>  <Assigned category>
group C

$$$$
>  <Mutant name>
C13G A41C C97A C115A G128A

>  <Assigned category>
group A

$$$$
>  <Mutant name>
C11U U32A C34U G69U C88A

>  <Assigned category>
group B

$$$$
>  <Mutant name>
C15G A16C G51U G61U G71C C79A U112G

>  <Assigned category>
group A

$$$$
>  <Mutant name>
G52U C53G G60C C80A C94U

>  <Assigned category>
group C

$$$$
>  <Mutant name>
A29G G48U G93C G110U C123U

>  <Assigned category>
group B

$$$$
>  <Mutant name>
G65C G69U C114G G117C C124U G128C

>  <Assigned category>
group A

$$$$
>  <Mutant name>
C64U C97U

>  <Assigned category>
group C

$$$$
>  <Mutant name>
C4G A50C C115U

>  <Assigned category>
group B

$$$$
>  <Mutant name>
C62A C102A

>  <Assigned category>
group B

$$$$
>  <Mutant name>
C4G A27U G45A G61A C86A C97A G117A

>  <Assigned category>
group A

$$$$
>  <Mutant name>
G23C A121G

>  <Assigned category>
group A

$$$$
>  <Mutant name>
C98G G120A

>  <Assigned category>
group B

$$$$
>  <Mutant name>
G77A U109A

>  <Assigned category>
group A

$$$$
>  <Mutant name>
C28U C70U C88U

>  <Assigned category>
group B

$$$$
>  <Mutant name>
C22G A41C G44C C79G A90C

>  <Assigned category>
group A

$$$$
